# TEST TARGET: FLT-3 kinase (Homo sapiens, UniProt P36888)
# Construct: human FLT-3 (Arg571-Ser993); GST (N); purchased Cell Signaling Technology HTScan FLT-3 Kinase Assay Kit; host or cells: baculovirus expression system
# Sequence (P36888 571-993): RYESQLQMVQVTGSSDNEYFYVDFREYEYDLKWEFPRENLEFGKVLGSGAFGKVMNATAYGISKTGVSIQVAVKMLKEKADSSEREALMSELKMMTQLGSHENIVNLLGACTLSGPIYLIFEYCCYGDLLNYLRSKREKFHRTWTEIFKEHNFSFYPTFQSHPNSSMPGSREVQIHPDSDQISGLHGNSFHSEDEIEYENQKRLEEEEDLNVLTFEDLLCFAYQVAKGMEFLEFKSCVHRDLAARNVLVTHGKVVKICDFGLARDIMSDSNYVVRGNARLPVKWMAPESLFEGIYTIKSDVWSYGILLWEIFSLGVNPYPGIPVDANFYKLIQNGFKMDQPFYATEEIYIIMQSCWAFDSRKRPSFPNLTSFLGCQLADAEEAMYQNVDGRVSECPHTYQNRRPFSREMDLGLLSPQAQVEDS
# PROCEDURE TEXT: FLT-3 kinase DELFIA assay (HTScan FLT-3 Kinase Assay Kit)
# Type: biochemical
# CONDITION SET: 1 uM compound, 20 uM ATP
MEASURED QUANTITY: inhibition at 1 µM (%)
Answers are plain numbers, in %.

Give inhibition at 1 µM for each of the items listed below.
1. CCN(CC)CCCCn1c2cccccc-2c(-c2nc3cc(N4CCN(C)CC4)ccc3[nH]2)c1=O [Compound B32]
2. CCC1CCN(c2ccc3[nH]c(-c4c5cccccc-5[nH]c4=O)nc3c2)CC1 [Compound B106]
3. O=c1[nH]c2cccccc-2c1-c1nc2cc(N3CCNCC3)ccc2n1CC(F)(F)F [Compound B23]
4. N#Cc1ccc2[nH]c(-c3c4cccccc-4[nH]c3=O)nc2c1 [Compound B19]
5. O=c1[nH]c2cccccc-2c1-c1nc2cc(N3CCCN(c4cccc(Cl)n4)CC3)ccc2[nH]1 [Compound B96]
6. CN1CCN(c2ccc3[nH]c(-c4c5cccccc-5[nH]c4=O)nc3c2F)CC1 [Compound B51]

8.1
76.2
91.5
28.6
35.7
66.6

Lab note: each compound below needs its inhibition at 1 µM filled in.
1. O=C(Nc1ccc2[nH]c(-c3c4cccccc-4[nH]c3=O)nc2c1)Nc1cc(C(F)(F)F)ccc1Cl [Compound B135]
2. O=C(Nc1cccc(C(F)(F)F)c1)Nc1ccc2[nH]c(-c3c4cccccc-4[nH]c3=O)nc2c1 [Compound B132]

62
72.4
